- test_method_notes: yeast display, Sf9 membrane polyspecificity reagent, FACS + sequencing; frameworks hold sequencing errors
assay_readout: polyreactivity (PSR sort gate)

QVQLVESGGGLVQAGGSLRLSCAASGFIFWYYAMGWYRQAPGKERELVAAINSSGGSTYYADSVKGRFTISRDNAKNTVSLQMNSLKPEDTAVYYCAARAYQRGNYWGQGTQVTVSS | high polyreactivity
QVQLVESGGGLVQAGGSLRLSCAASGSTFYRNALGWYRQAPGKERELVARISSRGGRTSYADSVKGRFTISRDNAKNTVYFQMNSLKPEDTAVYYCAADYYVNRIQRYDYWGQGTQVTVSS | high polyreactivity
QVQLVESGGGLVQAGGSLRLSCAASGSIFNANAMGWYRQAPGKERELVAGIRSGSSTNYADSVKGRFTISRDNAKNTVYFQMNSLKPEDTAVYYCATEGYWVYGFDDEDWGQGTQVTVSS | low polyreactivity
QVQLVESGGGLVQAGGSLRLSCAASGRTFWDYGMGWYRQAPGKERELVPTISGNGGDTYYADSVKGRFTISRDNAKNTVYLQMNSLKPEDTAVYFCAADYRFYRTDRHYDYWGQGTQVTVSS | low polyreactivity

Task: Reported polyreactivity (PSR sort gate), sequence "QVQIVESGGGLVQAGRSLRLSCAASGSTFEFYAMGWYRQAPGKEREFVAGITSSGVTTYYADSVKGRFTISRDNAKYTVYLQMNSLKPVDTAVYYCAATDVVYSWFFLVYIPYDYWGQGTQVTVSS" : ____
Output: low polyreactivity

* * *

- test_method_notes: yeast display, Sf9 membrane polyspecificity reagent, FACS + sequencing; frameworks hold sequencing errors
assay_readout: polyreactivity (PSR sort gate)

As a guide, the following entries are already answered.
QVQLVESGGGLVQAGGSLRLSCAASGRIFSNNAMGWYRQAPGKERELVASIDSGDSTTYADSVKGRFTISRDNAKNTVYLQMNSLKPEDTAVYYCNAGPAEADYDYWGQGTQVTVSS | high polyreactivity
QVQLVESGGGLVQAGGSLRLSCAASGLTFPVYTMGWYRQAPGKEREFVAAITYNGGRTYYADSVKGRFTISRDNAKNTVYLQMNSLKPEDTAVYYCAAEYGTYFVRYYAGASYRYGYWGQGTQVTVSS | low polyreactivity
QVQLVESGGGLVQAGGSLRLSCAASGSIFAGYAIGWYRQAPGKERELVAAISWSGGGTYYADSVKGRFTISRDNAKNTVYLQMNSLKPEDTAVYYCNAYGYRHRGNGYWGQGTQVTVSS | high polyreactivity
QVQLVESGGGLVQAGGSLRLSCAASGITFRYYAMGWYRQAPGKERELVADINRGSDTNYADSVKGRFTISRDNAKNTVYLQMNSLKPEDTAVYYCNAYWQGYGYDYWGQGTQVTVSS | low polyreactivity
QVQLVESGGGLVQAGGSLRLSCAASGRIFYFNTMGWYRQAPGKERELVAAISRSGTSTYYADSVKGRFTISRDNAKNTVYLQMNSLKPEDTAVYYCAAVKSYYKLDYWGQGTQVTVSS | high polyreactivity
QVQLVESGGGLVQAGGSLRLSCAASGITFQGNAMGWYRQAPGKEREFVAAISWSGDSTYYADSVKGRFTISRDNAKNTVYLQMNSLKPEDTAVYYCAASRVIPSYPYYKYDYWGQGTQVTVSS | low polyreactivity
QVQLVESGGGLVQAGGSLRLSCAASGGTFKTNAMGWYRQAPGKERELVAAITGSGTSTYYADSVKGRFTISRDNAKYTVYLQMNSLKPEDTAVYYCAADKLYQPGIGDDYWGQGTQVTVSS | low polyreactivity
QVQLVESGGVLVQAGGSLRLSCAASGFTFVWYAMGWYRQAPGKERELVAAISRRGTRTYYADSVKGRFTISRDNAKNTVYLQMNSLKPEDTALYYCAASNGYQAVTYDYWGQGTQVTVSS | high polyreactivity

Task: Reported polyreactivity (PSR sort gate), sequence "QVQLVESGGGLFQAGGSLRLSSAASGFTFWYYAMGWYRQAPGKERELVASISRTGGTTYYADSVKGRFKISRDIAKNTVYLQMNSLKPEDTAVYYCAARRQARRYWEGDYWCQGTQVTVSS" : ____
Output: high polyreactivity

Task: Please do the same for "QVQLVESGGGLVQAGGSLRLSCAASGRIFNWYVMGWYRQAPGKERELVAAINSGGITKYADSVKGRFTISRDNAKNTVYLQMNSLKPEDTAVYYCAAYYRRYDYDYWGQGTQVTVSS" as well.
Output: high polyreactivity

Task: Please do the same for "QVQLQESGAGLVQAGGSLRLSCAASGSIIHLHIMCWYRQAPRKERESVAAISYGTSTYYADSVKGRFTICRDNAKNTVYLQMNSPKPDDTAVYYCAALFLVSKHHHYWGEGTQVTVSS" as well.
Output: low polyreactivity

Task: Please do the same for "QVQLVESGGGLVQAGGSLRLSCAASGRTFGVNAMGWYRQAPGKERELVAAIDSSGGSTYYADSVKGRFTISRDNAKNTVYLQMNSLKPEDTAVYYCAGPYRPDYDYWGQGTQVTVSS" as well.
Output: high polyreactivity

Task: Please do the same for "QVQLVESGGGLVQSGGSLRLSCAASGSINVYYAMGLYRQEPGKERDLVAAISASGGSTYYADSVKGRFTISRDNAKNTFYLQMKSLKPEDTAVYYCAADTFYSYYDMDYWGQGTQVTVSS" as well.
Output: low polyreactivity

Task: Please do the same for "QVQLVETGGGLVQAGGSLRLSCAASGITIRPYTMGWYRQAPGKERELVARISRRGGSTYYADSVKGRFTISRDNAKNTVYLQMNSLKPEDTAVYYCATRSRAHISPYDYWGQGTQVTVSS" as well.
Output: high polyreactivity

* * *

- test_method_notes: yeast display, Sf9 membrane polyspecificity reagent, FACS + sequencing; frameworks hold sequencing errors
assay_readout: polyreactivity (PSR sort gate)

As a guide, the following entries are already answered.
QVQLVESGGGLVQAGGSLRLSCADSGRTFSYNTMGWYRQATGKERELVARITWGGGSTYYADSVKGRFTISRDNAKNTVYLQMNSLKPEDTAVYYCNADLRELSPWYWYSGEMDYWGQGTQVTVSS | low polyreactivity
QGQLVESVGGLVQAGGSLRLSCAASGSIFGWYVMGWYRQAPGQERELVAAISSVGSTYYADSVKGRFTISLDNAKNTVYLQMNSLKAEDTAVYYCAKLRYPYLFWDDSEYWGQGTQVTVSS | low polyreactivity
QVQLVESGGGLVQAGGSLRLSCAASGRIFERYAMGWYRQAPGKERELVAAISYRGGRTYYADSVKGRFTISRDNAKNTVYLQMNSLKPEDTAVYYCAAVEVRRVADYGFGLLDYWGQGSQVTVSS | high polyreactivity
QVQLVESGGGLVQAGGSLRLSCAASGSIFLYKAMGWYRQAPGKERELVADITSRGGSTYYADSVKGRFTISRDNAKNTVYLQMTSLKPEDTAVYDCNAVSRYVYGNGKNYYWGQGTHVTVSS | high polyreactivity

Okay, now this sequence:
Task: Reported polyreactivity (PSR sort gate), sequence "QVQLVESGGGLFQAGGSLRLSCAASGLTFNRYAMGWSRQAPGKERELVAAIDYSGGRTYYADSVKGRFTISRDYAKNTVYLQMNSLKPEDTAVFYCNALTRSVSRLLYDFWGQGSQVTVSS" : ____
Output: high polyreactivity

* * *

- test_method_notes: yeast display, Sf9 membrane polyspecificity reagent, FACS + sequencing; frameworks hold sequencing errors
assay_readout: polyreactivity (PSR sort gate)

QVQLVESGGGLVQAGGSLRLTCAASGFTFAYKTMGWYRQAPGKERELVAAISWSGGRTYYADSVKGRFTISRDNAKNTVYLQMNSLKPEHTAVYYCAAEFWNQYGAYDYWGQGTQVTLSS | low polyreactivity
QVQLVESGGGFLQAGGSLRLSCAASGRIFNYYAMGWYRQAPGTERELVAGINWSGTRTYYADSVKGRFTISRDNAKNTVYLQMNSLKPEDTAVYYCNAGRTWRAFTGDEYWGQATQVTVSS | high polyreactivity
QVQLVESGGGLVQAGGSLRLSCAASVFLPYTMGWYRQAPGKERELVAAITRGGSTYYADSVKGRFTISRDNAKNTVYLQMNSLKPEDTAVYYCAKRSTFAWRGYDYWGQGTQVTVSS | high polyreactivity
QVQLVESGGGLVQAGGSLRLSCAASGFIFPYDAMGWYSQAPGNERELVAAITSSGGRTYYADSVQGRFTISRDNAKNTVYFQMNSLKPEDTAVYYCAARGAPPAYGYWGQGTQVTVSS | high polyreactivity
QVQLVESGGGLVQAGGSLRLSCAASGRIFSWYAMGWYRQAPGKERELVAAISWRGGSTYYADSVKGRFTISRDNAKNTVYLQMNSLKPEDTAVYYCIGGPGGYDYWGHGTQVTVSS | low polyreactivity
QVQLVESGGGLVQAGGSLRLSCAASGGIFFPNAMGWYRQAPGKERELVAAISWSAGSTYYADSVKGRFTISRDHAKNTVDLQMNSLKPEDTAVYYCPAAGSNYTVWYGYYYWGQGTQVTVSS | low polyreactivity
QVQLVESGGGLVQAGGSLSLSCAASGATFVRNAMGWYRQAPGKERELVAVISFRGGRTYYADSVKGRFTISRDNAKNTVYLQMNSLNPEDTAVYYCAKDRVASGVISSVDSWGQGTLVTVSS | low polyreactivity
QVQLVESGGGLVEAGVSLRISCAASGRIFAYNTMGWYRQAPGKERELVAAISWRGGSTYYADSVKGRFTISRDNEKNSVHLQRNSLKPEDTAVYYCAVLSSSLTRFDYWGQGSQVTVSS | high polyreactivity
QVQLVESGGRLVQAGGSLRLSCAASGRIFSPYAMGRYRPAPGKERELVAAITQSGGITSYADSVKGRFTISRDNAKNTVYLQMISLKPEDTAVYYCNKDVWDGYDWPEFDYWGQGTQVTVSS | low polyreactivity
QVQLVESGGGLVQAGGSLRLSCAASGFTFDWYAMGWYRQAPGKERELVAAISSGGNTKYADSVKGRFTISRDNAKNTVYLQMNSLKPEDTAVYYCAARLYYSLSYYYWGQGTQVTVSS | high polyreactivity

Task: Reported polyreactivity (PSR sort gate), sequence "QVQLVESGGGLVQAGGSLRLSCAASGRTFGLYAMGWYRQAPGKERELVAAISWGGGRTYYADSVKGRFTISRDNAKNTVYLQMNSLKPEDTAVYYCNAVYSPRYYVGGYDYWGQGTQVTVSS" : ____
Output: high polyreactivity

Task: Please do the same for "QVQLVESGGVLVQAGGSLRLSCAASGRTLRWYAKGWYRPAPGKERELVAAINWSGTSTYYADSVKGRFTISRDNAKNTVYLQMNSLKPEDTAVYYCAKRVTWNYDWGQGTQVTVSS" as well.
Output: high polyreactivity

Task: Please do the same for "QVQLVESGGGLVQAGGSLRLSCAASGRIFRAYTMGWYRQAPGKARELVAAISRSTGSTNYADSVKGRFTISRDNAKNTVYLQMNSLKPEDTAVYFCNARSRWYLVGQQSTRLDYWGQGTQVTVSS" as well.
Output: high polyreactivity
